Test system: M. mycetomatis genome strain MM55
assay-details: CLSI M38-A2 based in vitro susceptibility screening (XTT or resazurin), growth at fixed concentration
Format: cell-based, Madurella mycetomatis
condition-info: Madurella mycetomatis, 25 uM, replicate A; read-out: Percentage survival at 25um, 25 um A
Note to self: values exactly at 80% are 1. So activity at 25 µM at or above 80% is 1, below is 0.

Solved entries:
CCC(CC)[C@H](NC(C)=O)[C@@H]1[C@H](O)[C@@H](C(=O)O)C[C@H]1NC(=N)N	1
CC#C[C@]1(O)CC[C@H]2[C@@H]3CCC4=CC(=O)CCC4=C3[C@@H](c3ccc(N(C)C)cc3)C[C@@]21C	1
O=C(CC1Sc2ncnn2C1=O)Nc1ccc(Br)cc1 (stereo not drawn)	0
Nc1c(C(=O)NCc2ccco2)c2nc3ccccc3nc2n1CCN1CCCCC1	0
Cc1cccc(CC(=O)N[C@H]2CCOC2=O)c1	1

*Q* Determine whether this molecule has activity at 25 µM no lower than 80%: COc1ccc2sc3c(c2c1)NC(C)CNC3=O (stereo not drawn)
*A* 0

*Q* Determine whether this molecule has activity at 25 µM no lower than 80%: CN1c2ccc(Cl)cc2N(c2ccccc2)C(=O)c2cn(Cc3ccc(CN4CCOCC4)cc3)nc21
*A* 0

*Q* Determine whether this molecule has activity at 25 µM no lower than 80%: O=c1nc(N2CCN(CC3CCCCC3)CC2)sc2c([N+](=O)[O-])cc(C(F)(F)F)cc12
*A* 1
